Values compiled from ChEMBL document CHEMBL4513216.

Tested on: Plasmodium berghei
method summary: Screen against P. berghei liver stage (PbLuc), transformed with Luciferase, at 10uM
Type: functional, HepG2
test settings: tested at 10 uM
Hit rate of the full screen: of about 69,000 compounds, about 8,600 (12%) showed an effect of 50% or more. The sample holds strong results, similar compounds and a random draw of the others, so the mix is not that of the screen.
Classification scheme (INHIBITION): lo = under -20%, med = from -20% up to 20%, hi = 20% and over

Worked examples, 5 compounds total:
compound	target or test system	category label
CSc1nccc(N2C[C@H]3CC[C@@H](C2)N(CC2CCC2)C3=O)n1	Plasmodium berghei	hi
O=C1CC2(CCCC2)CN1CCOc1ccc(F)cc1	Plasmodium berghei	lo
O=S(=O)(C1CC1)N1CCc2ncnc(N3CCCC3)c2CC1	Plasmodium berghei	med
COc1ccc(-n2cccn2)c(CN2CCC3(CCCN(C)C3=O)C2)c1 (stereo not drawn)	Plasmodium berghei	hi
Cc1ccc(F)c(C(=O)N2CCC(Nc3ccc(C)nn3)CC2)c1	Plasmodium berghei	med

Quick check: band for CCN1CCN(C)C2(CCN(Cc3ccsc3)CC2)C1=O
med

Quick check: band for O=C(CNC(=O)c1ccc2c(c1)CCC2)NCCNc1ncccn1
lo

Quick check: band for COCCC(=O)N1CCCC1c1nc(O)cc(-c2ccccn2)n1 (stereo not drawn)
hi
